system: DRB5*0101 (Homo sapiens, UniProt P01903+Q30154)
assayNotes: biochemical
conditionContext: Binding affinity DRB5 *0101
pIC50: −log10 of the molar value.
observationType: pIC50

Examples with answers:
[
  {
    "compound": "CC[C@H](C)[C@H](NC(=O)[C@@H](NC(=O)[C@@H]1CCCN1C(=O)[C@@H](NC(=O)[C@@H](NC(=O)[C@H](CC(N)=O)NC(=O)CNC(=O)[C@H](CO)NC(=O)[C@H](CS)NC(=O)[C@H](CC(C)C)NC(=O)[C@H](CCCCN)NC(=O)[C@H](CCCNC(=N)N)NC(=O)[C@H](CCCNC(=N)N)NC(=O)[C@@H](N)CCCCN)[C@@H](C)O)[C@@H](C)O)[C@@H](C)CC)C(=O)N[C@@H](Cc1c[nH]cn1)C(=O)O [Peptide 1601.16]",
    "pIC50": 5.30
  },
  {
    "compound": "CC[C@H](C)[C@H](NC(=O)[C@@H]1CCCN1)C(=O)N[C@@H](CC(C)C)C(=O)N[C@@H](CC(C)C)C(=O)N[C@@H](Cc1c[nH]c2ccccc12)C(=O)N[C@@H](CCC(N)=O)C(=O)N1CCC[C@H]1C(=O)N[C@H](C(=O)N1CCC[C@H]1C(=O)N[C@H](C(=O)N[C@@H](Cc1c[nH]cn1)C(=O)N[C@H](C(=O)N[C@H](C(=O)N1CCC[C@H]1C(=O)N[C@@H](CC(C)C)C(=O)O)C(C)C)[C@@H](C)O)C(C)C)[C@@H](C)CC [Peptide 68.0037]",
    "pIC50": "< 4.70"
  },
  {
    "compound": "CC[C@H](C)[C@H](NC(=O)[C@H](CO)NC(=O)[C@H](CO)NC(=O)[C@H](CC(=O)O)NC(=O)[C@H](C)NC(=O)[C@H](CC(N)=O)NC(=O)[C@@H](NC(=O)[C@H](Cc1ccc(O)cc1)NC(=O)[C@H](C)NC(=O)[C@@H](N)C(C)C)[C@@H](C)CC)C(=O)N[C@@H](CCC(=O)O)C(=O)NCC(=O)N[C@@H](CC(N)=O)C(=O)N[C@@H](Cc1ccc(O)cc1)C(=O)N[C@H](C(=O)O)[C@@H](C)O [Peptide 68.0177]",
    "pIC50": "< 4.70"
  },
  {
    "compound": "CC[C@H](C)[C@H](NC(=O)[C@H](CC(=O)O)NC(=O)[C@H](Cc1c[nH]cn1)NC(=O)[C@@H](NC(=O)[C@@H](NC(=O)[C@@H](NC(=O)[C@H](CCC(N)=O)NC(=O)[C@H](CC(C)C)NC(=O)[C@H](CCC(=O)O)NC(=O)[C@@H](NC(=O)[C@H](CS)NC(=O)[C@@H](N)CC(C)C)[C@@H](C)O)[C@@H](C)O)[C@@H](C)O)[C@@H](C)CC)C(=O)N[C@H](C(=O)N[C@@H](CC(C)C)C(=O)N[C@@H](CCC(=O)O)C(=O)O)[C@@H](C)CC [Peptide 1543.24]",
    "pIC50": "< 4.70"
  }
]

// query Look up and state reported pIC50 for CC[C@H](C)[C@H](NC(=O)[C@@H]1CCCN1C(=O)[C@H](CC(=O)O)NC(=O)[C@@H](NC(=O)[C@@H]1CCCN1C(=O)[C@H](Cc1ccccc1)NC(=O)[C@@H](NC(=O)[C@H](CC(=O)O)NC(=O)[C@@H](NC(=O)[C@@H]1CCCN1C(=O)[C@H](CO)NC(=O)[C@@H](N)CCCNC(=N)N)[C@@H](C)CC)[C@@H](C)O)[C@@H](C)O)C(=O)N[C@@H](CCCCN)C(=O)N[C@@H](CCC(=O)O)C(=O)N[C@@H](CO)C(=O)O [Peptide 68.0026]
// result < 4.70

====

Property: A2.1 Binding; scope: individual substances
system: A2.1 HLA molecules (Homo sapiens, UniProt P04439, D140Y/D185E/D98H/E176V/E277Q/G131W/G231S/I119V/I121R/I166T/I218V/L300P/L318F/N151K/N90K/P208A/P217A/Q86G/Q94H/R138H/R169H/T345S)
Format: binding
Parameters: scale not given here
Answer field: number only, no words.

[
  {
    "substance": "TMELMIRTV",
    "A2.1 Binding": 0.0029
  }
]

// query Fill in A2.1 Binding for record E7.12/1088.09 (MLDLQPETT)
// result 0.0028

// query Consider the substance E7.73/1088.13 (HVDIRTLED) and give its recorded A2.1 Binding.
// result 0

// query Answer with the recorded A2.1 Binding for the substance listed here: LMPPPVAEL
// result 0.0066

// query For the substance LLLYYDYSL , report A2.1 Binding.
// result 0.28

====

system: DRB4*0101 (Homo sapiens, UniProt P01903+P13762, G164S)
assayNotes: biochemical
Format: binding
observationType: IC50

# annotated cases, reported IC50 shown
[
  {
    "compound": "CC[C@H](C)[C@H](N)C(=O)N[C@@H](CO)C(=O)N[C@H](C(=O)N[C@H](C(=O)N[C@@H](CC(N)=O)C(=O)N[C@@H](CCC(=O)O)C(=O)N[C@@H](CC(=O)O)C(=O)NCC(=O)N[C@@H](CC(N)=O)C(=O)N[C@@H](CCC(=O)O)C(=O)N[C@H](C(=O)N[C@@H](Cc1ccccc1)C(=O)N[C@@H](CC(N)=O)C(=O)N[C@H](C(=O)N[C@@H](CO)C(=O)O)[C@@H](C)O)[C@@H](C)CC)[C@@H](C)CC)[C@@H](C)CC [Peptide 68.0166]",
    "reportedMeasurement": "6.39 µM"
  },
  {
    "compound": "CSCC[C@H](NC(=O)[C@H](CC(=O)O)NC(=O)[C@H](Cc1ccc(O)cc1)NC(=O)[C@H](CC(C)C)NC(=O)[C@@H]1CCCN1C(=O)[C@H](Cc1c[nH]cn1)NC(=O)[C@@H]1CCCN1C(=O)[C@H](Cc1ccccc1)NC(=O)[C@H](CO)NC(=O)[C@H](Cc1c[nH]cn1)NC(=O)[C@H](CO)NC(=O)[C@@H](NC(=O)[C@H](CCC(N)=O)NC(=O)[C@H](Cc1ccccc1)NC(=O)[C@@H](N)C(C)C)C(C)C)C(=O)O [Peptide 68.0070]",
    "reportedMeasurement": "> 20 µM"
  }
]

// query Annotate the compound CC[C@H](C)[C@H](NC(=O)[C@@H](NC(=O)[C@@H]1CCCN1C(=O)[C@@H](NC(=O)[C@@H](NC(=O)[C@H](CC(N)=O)NC(=O)CNC(=O)[C@H](CO)NC(=O)[C@H](CS)NC(=O)[C@H](CC(C)C)NC(=O)[C@H](CCCCN)NC(=O)[C@H](CCCNC(=N)N)NC(=O)[C@H](CCCNC(=N)N)NC(=O)[C@@H](N)CCCCN)[C@@H](C)O)[C@@H](C)O)[C@@H](C)CC)C(=O)N[C@@H](Cc1c[nH]cn1)C(=O)O [Peptide 1601.16] with its measured IC50.
// result > 20 µM

====

# key: entry, value: A3.2
system: HLA-A3.2 (A*0301) (Homo sapiens, UniProt P04439)
assayNotes: biochemical
Format: binding
conditionContext: Table 164, MAGE peptides; binding value to HLA-A3.2, no unit given

Example cases with answers are listed next.
[
  {
    "sequenceEntry": "FLIIVLVMIA",
    "system": "HLA-A3.2 (A*0301) (Homo sapiens, UniProt P04439)",
    "reportedMeasurement": 0.0093
  },
  {
    "sequenceEntry": "ALGLVCVQA",
    "system": "HLA-A3.2 (A*0301) (Homo sapiens, UniProt P04439)",
    "reportedMeasurement": "<0.0002"
  },
  {
    "sequenceEntry": "EVYDGREHSA",
    "system": "HLA-A3.2 (A*0301) (Homo sapiens, UniProt P04439)",
    "reportedMeasurement": "<0.0002"
  },
  {
    "sequenceEntry": "SLHCKPEEA",
    "system": "HLA-A3.2 (A*0301) (Homo sapiens, UniProt P04439)",
    "reportedMeasurement": "<0.0002"
  },
  {
    "sequenceEntry": "LVFGIDVKEA",
    "system": "HLA-A3.2 (A*0301) (Homo sapiens, UniProt P04439)",
    "reportedMeasurement": "<0.0002"
  }
]

// query Lab note: record A3.2 of VFGIDVKEA tested on HLA-A3.2 (A*0301) (Homo sapiens, UniProt P04439).
// result <0.0002

====

system: HLA-A11 (A*1101) (Homo sapiens, UniProt P04439, A114D/D185E/E176A/F33Y/L180Q/S129P/T187R)
assayNotes: biochemical
Type: binding
No end group written: not given here.
Dear colleague, classification is by IC50, with ranges listed here: class 1 = under 20 nM, class 2 = from 20 nM up to 60 nM, class 3 = 60 nM and over

Solved entries:
[
  {
    "sequenceEntry": "TIAYIEYRK [Peptide 9017.0119]",
    "system": "HLA-A11 (A*1101) (Homo sapiens, UniProt P04439, A114D/D185E/E176A/F33Y/L180Q/S129P/T187R)",
    "category": "class 2"
  },
  {
    "sequenceEntry": "TQQMLQVEGR [Peptide 88.0128]",
    "system": "HLA-A11 (A*1101) (Homo sapiens, UniProt P04439, A114D/D185E/E176A/F33Y/L180Q/S129P/T187R)",
    "category": "class 3"
  },
  {
    "sequenceEntry": "STWHWTGCNK [Peptide 1589.28]",
    "system": "HLA-A11 (A*1101) (Homo sapiens, UniProt P04439, A114D/D185E/E176A/F33Y/L180Q/S129P/T187R)",
    "category": "class 1"
  },
  {
    "sequenceEntry": "RQMNMSQWIK [Peptide 1587.54]",
    "system": "HLA-A11 (A*1101) (Homo sapiens, UniProt P04439, A114D/D185E/E176A/F33Y/L180Q/S129P/T187R)",
    "category": "class 1"
  }
]

// query Lab note: sort NLQGKLYYK [Peptide 88.0375] into the matching IC50 band.
// result class 2

// query # classify by IC50 band: FVSFLSALK [Peptide 1587.37]
// result class 1
